Reference source: PubChem BioAssay (NCI)

# growth per entry
Tested on: UO-31 renal
Assay: NCI-60 one-dose screen, 48 h (100 = growth as untreated, 0 = no growth, -100 = all killed)
Conditions: 10 µM unless noted
About 83,000 compounds went through this panel and 20% of them were active in at least one assay; those are over-represented in the sample as a whole.
Provide the reading as a plain figure in %.

Please review the entries below; each comes with its answer.
chemSmiles	unitOfMeasure	growth
COc1ccc(C(=O)c2c(N)c(C#N)cn2-c2ccc(Cl)cc2Cl)cc1	%	84.5
Cc1ccc2c(n1)C(=O)C(Cl)=C(Nc1ccc(C(F)(F)F)cc1)C2=O	%	-85.2
COc1ccc2[nH]cc(-c3nn4cc(-c5ccncc5)nc4s3)c2c1	%	23.3
Fc1cccc(Cl)c1/C=N/Nc1nc(N/N=C/c2c(F)cccc2Cl)nc(N2CCCCC2)n1	%	9.02

We next turn to a different compound, shown below.
In: Endpoint output: growth of N#Cc1c(-c2cccs2)cc(-c2cnccn2)nc1SCC(=O)N/N=C/c1ccncc1 . Value?
Out: 88.4
